Test system: PPARg:RXRa 30nM:10nM, anti-RXR (NR concentration 30 nM, RXRa partner concentration 10 nM)
Test: PBM binding z-score (relative to random genomic background probes); higher = stronger binding; sequences stand for … in GC…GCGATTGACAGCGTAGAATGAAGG
quantity.name: PBM binding z-score

Recorded PBM binding z-score of CCTACTGGTCCAAAAAGGTCATTGATGCCGATAA , please.
0.82

Then what about the sequence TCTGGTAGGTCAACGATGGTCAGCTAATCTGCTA ?
3.78

Then what about the sequence CGATCTAGGTCAGAACAGGACAGTGAAGGATGAT ?
1.41

Then what about the sequence GCGTCTGGGGCATCAGCAGGTTACCATAACTTAA ?
-0.644

Then what about the sequence CAAGCTAGGTCAAGGTCAAAGTCGGTTTGTGCCA ?
2.37

Then what about the sequence AGTCCAAGTTCAGGACGAGGTAACGTAAAGCACG ?
0.136

---

System: RARb:RXRa (NR concentration 270 nM, RXRa partner concentration 90 nM)
Test: PBM binding z-score (relative to random genomic background probes); higher = stronger binding; sequences stand for … in GC…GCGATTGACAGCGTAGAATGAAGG
PBM binding z-score vs 0.6: at or above is class 1, below is class 0.

Exam item: decide whether the reported PBM binding z-score for TCTCGTAGATCAAAGGTTAAGAAAGCCGAAGCCT is at least 0.6.
class 1

Then what about the sequence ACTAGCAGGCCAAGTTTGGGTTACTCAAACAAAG ?
class 0

Then what about the sequence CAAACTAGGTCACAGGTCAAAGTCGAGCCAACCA ?
class 1

Then what about the sequence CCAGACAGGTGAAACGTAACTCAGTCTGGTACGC ?
class 1

Then what about the sequence TTGAGTAGGTTACCAATGGGGCATTCAGCTTTCT ?
class 1

Then what about the sequence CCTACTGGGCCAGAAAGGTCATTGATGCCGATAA ?
class 1

Then what about the sequence TCTTGTAGATCAGCAGGTTGAGAAAGCTGGCCAA ?
class 0

Then what about the sequence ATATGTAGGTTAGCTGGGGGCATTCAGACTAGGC ?
class 1

Then what about the sequence GCGACTGGGGCATCAGCAGCTTACCATAACTTAA ?
class 0

Then what about the sequence ATCGAAAGGTCGAAGGTGAGGATACCCACCCGAA ?
class 1

Then what about the sequence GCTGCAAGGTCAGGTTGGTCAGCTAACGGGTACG ?
class 1

Then what about the sequence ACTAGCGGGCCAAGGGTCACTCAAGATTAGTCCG ?
class 1

---

Please provide measured PBM binding z-score for the entries that follow.
Test system: PXR homodimer (NR concentration 270 nM)
Assay: PBM binding z-score (relative to random genomic background probes); higher = stronger binding; sequences stand for … in GC…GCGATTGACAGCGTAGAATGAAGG
Please state the value as a number alone, without comment.

Recorded PBM binding z-score of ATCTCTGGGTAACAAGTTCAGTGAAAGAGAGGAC , please.
1.92

Then what about the sequence ATCAAAAGGTCGTGAGGTGAGTATACAGAAAGGC ?
1.09

Then what about the sequence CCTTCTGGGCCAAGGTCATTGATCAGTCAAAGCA ?
1.12

Then what about the sequence AGAACGAGGGCACGCTGACTTGATAGCAGAGTAG ?
-0.269

Then what about the sequence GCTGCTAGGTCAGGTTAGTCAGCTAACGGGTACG ?
-0.498

Then what about the sequence GCTCGGAGGACTAGGTCAGAGCTTTGTCCGTAGA ?
-0.984

Then what about the sequence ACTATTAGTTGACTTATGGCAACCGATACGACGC ?
0.358

Then what about the sequence CCTACTGGGCCAAAAAGGTCATTAATGCCGATAA ?
3.17

Then what about the sequence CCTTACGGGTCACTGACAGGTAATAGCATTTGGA ?
-0.116

Then what about the sequence GCTAGCAGGCCATTTGGGTCACTTAATGACGGGC ?
-0.077

Then what about the sequence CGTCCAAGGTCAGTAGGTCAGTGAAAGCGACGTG ?
0.64

Then what about the sequence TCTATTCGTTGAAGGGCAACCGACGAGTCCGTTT ?
0.546

Then what about the sequence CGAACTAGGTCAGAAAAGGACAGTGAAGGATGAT ?
-0.473

Then what about the sequence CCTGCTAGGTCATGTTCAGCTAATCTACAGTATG ?
-0.338

Then what about the sequence CGTCCAAGGTCAATCCTAGGTCAGTGAAAGCATT ?
0.983

Then what about the sequence ATCGAAAGGTCGACGAGGTGAGTATACACCGTTT ?
0.642

Then what about the sequence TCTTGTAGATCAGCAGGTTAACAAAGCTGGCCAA ?
-0.584

Then what about the sequence CCTACTGGGTCATCAGGTCATTGATATCAACGTT ?
0.934

Then what about the sequence CAAACTAGCTCACCGGAAGGTCAAAGTCCGCATG ?
1.23

Then what about the sequence CAGCCTAGGTCAGGGCCAGAATAGGAGGAACGTT ?
-0.618

Then what about the sequence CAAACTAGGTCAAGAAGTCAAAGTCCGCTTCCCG ?
0.206

Then what about the sequence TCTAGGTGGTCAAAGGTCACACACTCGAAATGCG ?
1.82

Then what about the sequence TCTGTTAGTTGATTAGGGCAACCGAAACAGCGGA ?
0.354

Then what about the sequence CAGCCTAGGTCAGGGCCAGTATAGGAGGAACGTT ?
-0.731

Then what about the sequence CCTATTTGGTCAGGAGGTCACACACCGGATATGA ?
1.72

Then what about the sequence AATACAGGGTCACTAGGCCAGAGGAGGTACGAAT ?
0.559

Then what about the sequence ATCTCTAGGTAAGACTCTGTTCAGTGAAGAACGC ?
0.53

Then what about the sequence GGCACGAGGGCAAGTTGATAGCAGAGTTTGATGG ?
0.171

Then what about the sequence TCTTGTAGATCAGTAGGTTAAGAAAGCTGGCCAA ?
0.0641

Then what about the sequence CCTGCTAGGACATGGTCAGCTAATCTACAGTATG ?
-0.746

Then what about the sequence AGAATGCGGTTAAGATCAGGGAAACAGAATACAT ?
-0.312

Then what about the sequence CCTATTAGTTGTCCATAAGGGCAACCGAAGCTCG ?
0.996

Then what about the sequence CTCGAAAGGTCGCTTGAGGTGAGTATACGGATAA ?
0.207

Then what about the sequence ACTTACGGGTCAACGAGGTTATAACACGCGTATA ?
4.42

Then what about the sequence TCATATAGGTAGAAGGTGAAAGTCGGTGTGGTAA ?
0.482

Then what about the sequence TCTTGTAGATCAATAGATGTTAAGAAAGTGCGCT ?
0.037

Then what about the sequence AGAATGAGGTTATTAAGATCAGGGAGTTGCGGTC ?
0.973

Then what about the sequence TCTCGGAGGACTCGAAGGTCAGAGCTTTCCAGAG ?
-0.316

Then what about the sequence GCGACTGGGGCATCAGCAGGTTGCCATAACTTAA ?
-0.422

Then what about the sequence TTACCAAGGTGACGGTCGTTGATCCCTCTGTAGA ?
-0.877

Then what about the sequence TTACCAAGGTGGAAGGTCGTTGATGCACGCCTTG ?
-0.0879

Then what about the sequence ATCGAAAGGTCGACGAGGTGATTATACACCGTTT ?
1.07

Then what about the sequence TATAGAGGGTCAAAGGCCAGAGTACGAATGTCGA ?
0.282

Then what about the sequence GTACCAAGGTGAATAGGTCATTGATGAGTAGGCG ?
0.883

Then what about the sequence CTCGAAAGGTCGTGATCAGGTGAGTATACCAAAC ?
-0.0349

Then what about the sequence AGAACGAGGGTACGCTGAGTTGATAGCAGAGTAG ?
0.15

Then what about the sequence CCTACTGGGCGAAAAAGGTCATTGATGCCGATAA ?
1.04

Then what about the sequence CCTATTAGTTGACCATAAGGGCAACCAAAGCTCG ?
1

Then what about the sequence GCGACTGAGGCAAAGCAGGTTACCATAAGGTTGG ?
-0.398

Then what about the sequence ACAGACAGGTGTTGAAGGTAACTCAGGCTATCAT ?
0.379

Then what about the sequence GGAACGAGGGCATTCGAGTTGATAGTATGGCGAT ?
1.45

---

Test system: THRa:RXRa (NR concentration 90 nM, RXRa partner concentration 90 nM)
Experiment: PBM binding z-score (relative to random genomic background probes); higher = stronger binding; sequences stand for … in GC…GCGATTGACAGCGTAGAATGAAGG
PBM binding z-score vs 0.8: at or above is Satisfied, below is Not satisfied.

Exam item: decide whether the reported PBM binding z-score for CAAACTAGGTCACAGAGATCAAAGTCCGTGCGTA is at least 0.8.
Satisfied

Then what about the sequence ACAGACTGGTGAGTGAAGGTAACTCAGCTGGACG ?
Not satisfied

Then what about the sequence TCTTGTAGATCACAGGTTAAGAAAGCCGAAGCCT ?
Not satisfied

Then what about the sequence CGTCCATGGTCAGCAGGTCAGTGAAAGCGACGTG ?
Satisfied

Then what about the sequence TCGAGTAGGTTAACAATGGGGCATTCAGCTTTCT ?
Not satisfied

// provenance: the supplement of paper PMC6555819
